# test.target: T1, CD73 on the surface of human tumor cells (human, UniProt P21589 27-549)
# T1 chain: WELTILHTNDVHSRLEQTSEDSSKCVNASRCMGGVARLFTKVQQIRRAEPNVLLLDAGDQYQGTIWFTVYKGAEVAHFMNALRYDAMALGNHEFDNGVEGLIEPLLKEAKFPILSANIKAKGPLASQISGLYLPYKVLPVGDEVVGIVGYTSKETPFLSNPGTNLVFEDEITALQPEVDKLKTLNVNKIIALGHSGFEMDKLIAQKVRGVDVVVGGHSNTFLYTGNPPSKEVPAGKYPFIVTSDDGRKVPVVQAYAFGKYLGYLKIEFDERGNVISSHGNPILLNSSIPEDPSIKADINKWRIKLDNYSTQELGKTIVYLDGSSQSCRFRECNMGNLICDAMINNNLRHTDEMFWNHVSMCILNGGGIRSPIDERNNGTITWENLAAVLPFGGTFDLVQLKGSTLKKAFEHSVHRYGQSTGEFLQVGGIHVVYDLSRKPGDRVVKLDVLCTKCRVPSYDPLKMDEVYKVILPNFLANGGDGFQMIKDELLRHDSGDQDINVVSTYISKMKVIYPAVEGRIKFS
# test.details: FACS; NCI-H1299 cells, right table
result.type: EC50

QUERY: Item under review: Hu002c-16 (antibody, V domains shown) VH: QVQLVQSGAEVKKPGASVKVSCKASGYTLTSYWMHWVKKAPGQGLEWIGEINPSQGRSNYNEKFKSKVTLTVDRSTSTVYMELSSLRSEDTAVYYCARRGVSGNYFDYWGQGTLVTVSS VL: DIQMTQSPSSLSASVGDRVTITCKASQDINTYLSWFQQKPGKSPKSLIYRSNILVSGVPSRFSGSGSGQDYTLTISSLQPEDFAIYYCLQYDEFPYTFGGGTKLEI . Reported EC50?
RESULT: 0.86 nM
